Reference for the values: BigSolDB 2.1

# run.conditions: in n-propanol, 308.15 K
readout.type: solubility (mole fraction)

chem.smiles | experimental.value
N#Cc1ccccc1-c1ccc(CBr)cc1 | 0.0027

---

# run.conditions: in n-propanol, 313.15 K
readout.type: solubility (mole fraction)

chem.smiles | readout.type | experimental.value
N#Cc1ccccc1-c1ccc(CBr)cc1 | solubility (mole fraction) | 0.00343

---

# run.conditions: in acetone, 288.15 K

chem.smiles | solubility (mole fraction)
N#Cc1ccccc1-c1ccc(CBr)cc1 | 0.0214

---

# run.conditions: in n-propanol, 293.15 K

chem.smiles | solubility (mole fraction)
N#Cc1ccccc1-c1ccc(CBr)cc1 | 0.00126

---

# run.conditions: in acetone, 303.15 K
readout.type: solubility (mole fraction)

chem.smiles | experimental.value
N#Cc1ccccc1-c1ccc(CBr)cc1 | 0.0352

---

# run.conditions: in acetone, 298.15 K
readout.type: solubility (mole fraction)

chem.smiles | experimental.value
N#Cc1ccccc1-c1ccc(CBr)cc1 | 0.0306

---

# run.conditions: in n-propanol, 278.15 K
readout.type: solubility (mole fraction)

chem.smiles | experimental.value
N#Cc1ccccc1-c1ccc(CBr)cc1 | 0.00052

---

# run.conditions: in n-propanol, 288.15 K
readout.type: solubility (mole fraction)

chem.smiles | experimental.value
N#Cc1ccccc1-c1ccc(CBr)cc1 | 0.00099

---

# run.conditions: in acetone, 283.15 K

chem.smiles | solubility (mole fraction)
N#Cc1ccccc1-c1ccc(CBr)cc1 | 0.0169

---

# run.conditions: in n-propanol, 303.15 K

chem.smiles | solubility (mole fraction)
N#Cc1ccccc1-c1ccc(CBr)cc1 | 0.00226
